Data provenance: PubChem BioAssay (NCATS)

Test: qHTS for Inhibitors of the vitamin D receptor (VDR): Hit Validation using a Texas Red Assay (AID 602201); note: potency is the fitted concentration of half-maximal effect
Conditions: VDR coregulator binding, Texas Red fluorescence polarization, agonist-bound VDR ligand-binding domain; series mostly up to 57.1 µM
Records with an inconclusive call do not appear. Calls of active or inactive are those of the source. Calls come from the whole dose curve; as a rule, active = well fitted curve in the direction sought with a large enough effect; inconclusive = small, poorly fitted or top-dose-only effect, or another doubt; inactive = no such curve, though single readings can be large or run the other way.
METRIC: Potency

Below are worked cases with known answers.
>>> print(df.to_string())
                                   molecule  experimental_value
0  Cc1cc(C(C2C(=O)CC(C)(C)CC2=O)C2C(=O)CC(C)(C)CC2=O)cc(C)c1OC(F)F            inactive
1  CC(NC(=O)c1sc2cc([N+](=O)[O-])ccc2c1Cl)C(C)(C)C (stereo not given)    3.55 µM (active)
2  COc1ccc(C(=O)c2coc3c2C(=O)C(=O)c2ccccc2-3)cc1    5.62 µM (active)
3  O=C1NN(c2ccccc2)C(=O)/C1=C\c1cccc(OC(=O)c2cccs2)c1            inactive
4   CS(=O)(=O)c1nc(-c2ccccc2)cc(C(F)(F)F)n1      10 µM (active)

Record request: Potency value, item O=C(O)CCNc1ccc(NCCC(=O)O)c2c1C(=O)c1ccccc1C2=O 8.91 µM (active)

Record request: Potency value, item CCOC(=O)c1c(C)oc2c1c1c(c3ccccc32)OCN(Cc2cccnc2)C1 20 µM (active)

Record request: Potency value, item O=[N+]([O-])c1c(Nc2ccc(O)cc2)cc(Cl)c2nonc12 3.16 µM (active)

Record request: Potency value, item S=C(NNc1ccnc2cc(Cl)ccc12)Nc1ccccc1Cl 14.1 µM (active)

Record request: Potency value, item CCN(CC)S(=O)(=O)c1cc(NC(=O)c2ccc3c(c2)NC(=O)C(C)S3)ccc1C (stereo not given) inactive

* * *

Test: Confirmation and Secondary Assay for Modulators of Hemoglobin Beta Chain Splicing at IVS2 705 locus (AID 930);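 note: HeLa cells stably expressing the EGFP-705 splicing reporter; GFP fluorescence per well restored by corrected splicing of the IVS2-705 intron in EGFP; % of control where 0% means no effect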
Details: HeLa EGFP-705 splicing reporter, GFP fluorescence, 48 h; series mostly up to 46.1 µM
Activity calls are given as the source filed them. The call rests on the fitted dose curve; in most records, active means well fitted activation curve with a large enough effect; inconclusive means small, poorly fitted or top-dose-only effect; inactive means flat fitted curve, though single readings scatter. Bridge positions count the residues as written; N and C are the ends. Square brackets hold non-standard residues; d marks the D form. Peptide text beside a SMILES is read from it. * marks the point of attachment. ξ: configuration not given here. ξDab(CH2SO3H) = NC(CCNCS(=O)(=O)O)C(=O)O; Heptanoyl(6-Me) = CC(C)CCCCC(=O)*; Dab = NCC[CH](N)C(=O)O
METRIC: outcome

Below are worked cases with known answers.
MOLECULE	outcome
CC(=O)OC1CC(OC(C)=O)[C@]2(C)C(CC(OC(C)=O)[C@@]3(C)C4=CC(=O)OC(c5ccoc5)[C@]4(C)CCC32)C1(C)C (some centres undefined)	inactive
COc1cc(OC)c2c(=O)c(-c3ccc4c(c3)OCO4)coc2c1	inactive
C=C1C([C@@]2(C)C(OC(C)=O)CC(=O)O[C@@](C)(COC(C)=O)C2CC(=O)OC)C(OC=O)C(OC(=O)C(O)C(C)CC)[C@]2(C)C(c3ccoc3)CC(=O)C12O (some centres undefined)	inactive
O=c1c(-c2ccc(O)cc2)coc2c(C3OC(CO)C(O)C(O)C3O)c(O)ccc12 (centres undefined)	inactive
CN(C)c1ccc(O)c2c1C[C@@H]1C[C@H]3C(N(C)C)C(=O)C(C(N)=O)=C(O)[C@@]3(O)C(=O)C1=C2O (some centres undefined)	inactive

Record request: outcome value, item C=CCCCCCCCCCCCC(O)CC(O)COC(C)=O (centres undefined) (tested in a mixture with another compound) inactive

Record request: outcome value, item C=CC(C1=CC(=O)C(OC)=CC1=O)c1ccc(OC)cc1 (centres undefined) inactive

Record request: outcome value, item CCC(C)C1NC(=O)C(CCNCS(=O)(=O)O)NC(=O)C(NC(=O)C(CCNCS(=O)(=O)O)NC(=O)C(NC(=O)C(CCNCS(=O)(=O)O)NC(=O)CCCCC(C)C)C(C)O)CCNC(=O)C(C(C)O)NC(=O)C(CCNCS(=O)(=O)O)NC(=O)C(CCNCS(=O)(=O)O)NC(=O)C(C(C)CC)NC1=O (centres undefined) ({Heptanoyl(6-Me)}-[ξDab(CH2SO3H)]T[ξDab(CH2SO3H)][Dab][ξDab(CH2SO3H)]II[ξDab(CH2SO3H)][ξDab(CH2SO3H)]T; lactam 4-C; configuration not given here) inactive

Record request: outcome value, item COc1cc(C(C)=O)cc(OC)c1O inactive

Record request: outcome value, item O[N+]1=CC=CCC1=S.On1ccccc1=S.[Zn] inactive

Record request: outcome value, item CC1CC[C@@]2(C(=O)O)CC[C@]3(C)C(=CCC4[C@@]5(C)CCC(O)C(C)(C)C5CC[C@@]43C)C2C1C (some centres undefined) inactive

Record request: outcome value, item NC(=O)c1ccc[n+]([C@@H]2OC(COP(=O)([O-])OP(=O)(O)OCC3OC(n4cnc5c(N)ncnc54)C(O)C3O)C(O)C2O)c1 (some centres undefined) inactive

Record request: outcome value, item CC1(C)CC[C@]2(C(=O)O)CC[C@@]3(C)C(=CCC4[C@@]5(C)CCC(O)C(C)(C)C5CC[C@@]43C)C2C1 (some centres undefined) inactive

Record request: outcome value, item CC1CC2C(C(O)C[C@]3(C)C2CC[C@]3(O)C(=O)CO)[C@]2(C)C=CC(=O)C=C12 (some centres undefined) inactive

* * *

Molecular target: Cytochrome P450 3A4 (Homo sapiens)
Assay: qHTS Assay for Inhibitors and Substrates of Cytochrome P450 3A4 (AID 884); note: nearly all actives have a fitted effect of over 50% in size
Conditions: recombinant CYP3A4, Luciferin-PPXE luminescence; series mostly up to 57.1 µM
Records with an inconclusive call do not appear. The source made the active and inactive calls. Calls come from the whole dose curve; as a rule, active = well fitted inhibition curve with a large enough effect; inconclusive = small, poorly fitted or top-dose-only effect; inactive = no such curve, though single readings can be large or run the other way.
Outcome (select one): 1 (yes) (active), 0 (no) (inactive)

COMPOUND	ANSWER_LABEL
Cc1ccc2oc(=O)c3c4cc(O)c(O)cc4oc3c2c1	1 (yes)
CC1(C(=O)NCCc2c[nH]c3ccccc23)C=CCN1C(=O)c1ccccc1 (configuration not stated)	1 (yes)
COc1c(O)c(O)cc2c1oc1c3ccccc3oc(=O)c21	1 (yes)
O=C1C=C(NCCO)C(=O)c2cnccc21	1 (yes)
C=CCOC(=O)C(C(C)=O)C(NC(=O)OC)c1ccc(F)cc1 (configuration not stated)	1 (yes)

Field: outcome | Entry: CC(=O)N1[C@H](C)C=C[C@]1(Cc1ccccc1)C(=O)NCc1cc(F)cc(C(F)(F)F)c1 1 (yes)

Field: outcome | Entry: Cc1nn(-c2ccccc2)nc1CNC(=O)C(C)Cc1ccccc1 (configuration not stated) 1 (yes)

Field: outcome | Entry: O=C(Nc1cc(NC(=O)c2ccccc2)c(C(=O)O)cc1C(=O)O)c1ccccc1 0 (no)

Field: outcome | Entry: COc1ccc(O[C@H]2C=C[C@@H](c3ccccc3)O[C@@H]2CO/N=C\[C@@H](C)[C@H](OCc2ccccc2)C(C)C)cc1 1 (yes)

Field: outcome | Entry: COC(=O)c1ccc(C(NC(=O)OCc2ccccc2)/C(=C/[C@@H](C)C(=O)N[C@@H](CO)Cc2ccccc2)c2cccnc2)cc1 (some centres not stated) 1 (yes)

Field: outcome | Entry: CC(=O)OC1CCC2(C)C(=CCC3C2CCC2(C)C3C[C@@H]3O[C@]32C(C)=O)C1 (some centres not stated) 0 (no)

Field: outcome | Entry: Cn1c(=O)c(C(=O)COC(=O)c2cc(-c3ccco3)nc3ccccc23)c(N)n(Cc2ccccc2)c1=O 1 (yes)

Field: outcome | Entry: C#CCCCO/N=C1/C[C@@H](O)[C@@H](O)[C@@H]2[C@H]3C(=O)N(c4ccc(F)cc4F)C(=O)[C@@H]3CC[C@H]12 1 (yes)

Field: outcome | Entry: COC(=O)c1ccc(C(NC(=O)OCc2ccccc2)/C(=C/[C@@H](C)C(=O)NCc2ccccc2)c2cccnc2)cc1 (some centres not stated) 1 (yes)

* * *

Test system: 7G8
Experiment: qHTS profiling for inhibitors of Plasmodium falciparum proliferation (AID 504749); note: nearly all actives have a fitted effect of over 60% in size
Conditions: P. falciparum in erythrocytes, SYBR Green DNA, 72 h; series mostly up to 28.7 µM
Results filed as inconclusive are left out. Activity calls are given as the source filed them. Calls follow the shape of the dose curve; as a rule, active = well fitted inhibition curve with a large enough effect; inconclusive = small, poorly fitted or top-dose-only effect; inactive = flat fitted curve, though single readings scatter. Bridge positions count the residues as written; N and C are the ends. Square brackets hold non-standard residues; d marks the D form. Peptide text beside a SMILES is read from it. * marks the point of attachment. ξ: configuration not given here. ξDab(CH2SO3H) = NC(CCNCS(=O)(=O)O)C(=O)O; Heptanoyl(6-Me) = CC(C)CCCCC(=O)*; Orn = NCCC[CH](N)C(=O)O; Dab = NCC[CH](N)C(=O)O
Outcome (select one): active, inactive

COMPOUND	ANSWER_LABEL
CCC(C)C1NC(=O)C(CCNCS(=O)(=O)O)NC(=O)C(NC(=O)C(CCNCS(=O)(=O)O)NC(=O)C(NC(=O)C(CCNCS(=O)(=O)O)NC(=O)CCCCC(C)C)C(C)O)CCNC(=O)C(C(C)O)NC(=O)C(CCNCS(=O)(=O)O)NC(=O)C(CCNCS(=O)(=O)O)NC(=O)C(C(C)CC)NC1=O (stereo unspecified) ({Heptanoyl(6-Me)}-[ξDab(CH2SO3H)]T[ξDab(CH2SO3H)][Dab][ξDab(CH2SO3H)]II[ξDab(CH2SO3H)][ξDab(CH2SO3H)]T; lactam 4-C; configuration not given here)	inactive

Field: outcome | Entry: C=CC1=C(C(=O)O)N2C(=O)[C@@H](NC(=O)C(N=O)c3csc(N)n3)[C@H]2SC1 (stereo partly specified) inactive

Field: outcome | Entry: CCC(Oc1ccccc1)C(=O)NC1C(=O)N2C1SC(C)(C)C2C(=O)O (stereo unspecified) inactive

Field: outcome | Entry: CNCC(=O)NC(CCCN=C(N)N)C(=O)NC(C(=O)NC(Cc1ccc(O)cc1)C(=O)NC(C(=O)NC(Cc1cnc[nH]1)C(=O)N1CCCC1C(=O)NC(C)C(=O)O)C(C)C)C(C)C (stereo unspecified) inactive

Field: outcome | Entry: COc1ccc(-c2nc3ccc(C4=C(C)CC(=O)NN4)cc3[nH]2)cc1 active

Field: outcome | Entry: CC(C)CC1NC(=O)C(CCCN)NC(=O)C(C(C)C)NC(=O)C2CCCN2C(=O)C(Cc2ccccc2)NC(=O)C(CC(C)C)NC(=O)C(CCCN)NC(=O)C(C(C)C)NC(=O)C2CCCN2C(=O)C(Cc2ccccc2)NC1=O (stereo unspecified) (cyclo(FPV[Orn]LFPV[Orn]L); configuration not given here) active

Field: outcome | Entry: CCC1NC(=O)C(NC(=O)c2ncccc2O)C(C)OC(=O)C(c2ccccc2)NC(=O)C2CC(=O)CCN2C(=O)C(Cc2ccccc2)N(C)C(=O)C2CCCN2C1=O (stereo unspecified) active

Field: outcome | Entry: CCOC(=O)C(CS)NCCN[C@@H](CS)C(=O)OCC (stereo partly specified) inactive

Field: outcome | Entry: O=C(O)c1ccccc1-c1c2cc(Br)c(=O)c(Br)c-2oc2c(Br)c(O)c(Br)cc12 inactive

Field: outcome | Entry: NC(=O)CCC1NC(=O)C(Cc2ccccc2)NC(=O)C(Cc2ccc(O)cc2)NC(=O)CCSSCC(C(=O)N2CCCC2C(=O)NC(CCCN=C(N)N)C(=O)NCC(N)=O)NC(=O)C(CC(N)=O)NC1=O (stereo unspecified) inactive

Field: outcome | Entry: CC1(C)C(/C=C/C=C/C=C/C=C2\N(CCCCS(=O)(=O)O)c3ccc4ccccc4c3C2(C)C)=[N+](CCCCS(=O)(=O)[O-])c2ccc3ccccc3c21 inactive
